Values from PubChem BioAssay AID1963834

test system: 873145-292-R-J1-PDC complex spheroid viability; experiment: Anticancer human tumor 873145-292-R-J1-PDC patient-derived renal clear cell carcinoma cell line growth inhibition [POLQ]; details: second compound 0.1 µM; first compound 0.0316 µM; hits give low values
readout name: viability, T/C (%)
State just the number; it will be interpreted in %.

Consider the reported viability, T/C for these compounds:
compound	viability, T/C [%]
O=c1[nH]cc(F)c(=O)[nH]1 + COC1C(OC(N)=O)C(O)C(Oc2ccc3c(O)c(NC(=O)c4ccc(O)c(CC=C(C)C)c4)c(=O)oc3c2C)OC1(C)C	105
O=C(Nc1ccc(O)c(NS(=O)(=O)c2ccc(F)cc2)c1)c1ccc(-c2ccccc2)cc1 + Nc1ccc(C#CCN(C(=O)Cc2ncc(C(F)(F)F)cc2C(F)(F)F)c2ccc(F)cc2)nn1	113
COc1cccc(OCCCN)c1-c1cc(Nc2cnc(C#N)cn2)n[nH]1 + COC1C(OC(N)=O)C(O)C(Oc2ccc3c(O)c(NC(=O)c4ccc(O)c(CC=C(C)C)c4)c(=O)oc3c2C)OC1(C)C	71.1
COc1ccc([C@@H](O)c2cc(-c3ncnc4cc(N5CCOCC5)ccc34)c(F)cc2Cl)nn1 + COC1C(OC(N)=O)C(O)C(Oc2ccc3c(O)c(NC(=O)c4ccc(O)c(CC=C(C)C)c4)c(=O)oc3c2C)OC1(C)C	94.3

Next:
Exam item: Can you share its viability, T/C? I mean this compound: COc1cc2cc(C(=O)CCC(=O)O)sc2cc1OC + Nc1ccc(C#CCN(C(=O)Cc2ncc(C(F)(F)F)cc2C(F)(F)F)c2ccc(F)cc2)nn1
Marked response: 106

====

Entries annotated with measured viability, T/C
test system: 873145-292-R-J1-PDC complex spheroid viability; test: Anticancer human tumor 873145-292-R-J1-PDC cell line growth inhibition [POLQ]; details: second compound 10 µM; first compound 3.16 µM; hits give low values;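 note: luminescence signal used as surrogate for viable cell content; spheroids exposed to compounds for 7 days before viability readout; 100% = DMSO vehicle control viability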
State just the number; it will be interpreted in %.

Consider the reported viability, T/C for these compounds:
compound	viability, T/C [%]
CC(C)n1c(=O)n(C)c2cnc3cc(F)c(-c4ccc(OCCCN5CCCCC5)nc4)cc3c21 + Cc1cccc(N(C)C(=O)C2C(O)CCN2c2nc(C)cc(C(F)(F)F)c2C#N)c1	87.8
Nc1ccn(C2OC(CO)C(O)C2(F)F)c(=O)n1 (stereo unspecified) + Cc1cccc(N(C)C(=O)C2C(O)CCN2c2nc(C)cc(C(F)(F)F)c2C#N)c1	59.7
CC1COCCN1c1cc(C2(O)CC3CCC(C2)O3)c2cnn(-c3ccn[nH]3)c2n1 (stereo unspecified) + COC1C(OC(N)=O)C(O)C(Oc2ccc3c(O)c(NC(=O)c4ccc(O)c(CC=C(C)C)c4)c(=O)oc3c2C)OC1(C)C	41.6
COc1cc2cc(C(=O)CCC(=O)O)sc2cc1OC + COC1C(OC(N)=O)C(O)C(Oc2ccc3c(O)c(NC(=O)c4ccc(O)c(CC=C(C)C)c4)c(=O)oc3c2C)OC1(C)C	99.2
O=C(Nc1ccc(O)c(NS(=O)(=O)c2ccc(F)cc2)c1)c1ccc(-c2ccccc2)cc1 + Nc1ccc(C#CCN(C(=O)Cc2ncc(C(F)(F)F)cc2C(F)(F)F)c2ccc(F)cc2)nn1	112

Exam item: Can you share its viability, T/C? I mean this compound: CC1COCCN1c1cc(-c2ccnn2C)c2ccnc(-c3ccn[nH]3)c2n1 (stereo unspecified) + COC1C(OC(N)=O)C(O)C(Oc2ccc3c(O)c(NC(=O)c4ccc(O)c(CC=C(C)C)c4)c(=O)oc3c2C)OC1(C)C
Marked response: 43.7

Exam item: Can you share its viability, T/C? I mean this compound: CC1COCCN1c1cc(-c2ccnn2C)c2ccnc(-c3ccn[nH]3)c2n1 (stereo unspecified) + Cc1cccc(N(C)C(=O)C2C(O)CCN2c2nc(C)cc(C(F)(F)F)c2C#N)c1
Marked response: 42

Exam item: Can you share its viability, T/C? I mean this compound: O=c1[nH]cc(F)c(=O)[nH]1 + Nc1ccc(C#CCN(C(=O)Cc2ncc(C(F)(F)F)cc2C(F)(F)F)c2ccc(F)cc2)nn1
Marked response: 105

Exam item: Can you share its viability, T/C? I mean this compound: COc1cc(C2c3cc4c(cc3C(OC3OC5COC(C)OC5C(O)C3O)C3COC(=O)C23)OCO4)cc(OC)c1O (stereo unspecified) + COC1C(OC(N)=O)C(O)C(Oc2ccc3c(O)c(NC(=O)c4ccc(O)c(CC=C(C)C)c4)c(=O)oc3c2C)OC1(C)C
Marked response: 76.7

Exam item: Can you share its viability, T/C? I mean this compound: C#Cc1c(F)ccc2cc(O)cc(-c3ncc4c(N5CC6CCC(C5)N6)nc(OCC56CCCN5CC(F)C6)nc4c3F)c12 (stereo unspecified) + Nc1ccc(C#CCN(C(=O)Cc2ncc(C(F)(F)F)cc2C(F)(F)F)c2ccc(F)cc2)nn1
Marked response: 109

Exam item: Can you share its viability, T/C? I mean this compound: CCc1cc2c(N3CCc4c(cc(Cn5ccnc5)cc4-c4cn(C)nc4C(F)(F)F)C3=O)ccnc2c(OC)n1 + COC1C(OC(N)=O)C(O)C(Oc2ccc3c(O)c(NC(=O)c4ccc(O)c(CC=C(C)C)c4)c(=O)oc3c2C)OC1(C)C
Marked response: 85.1
